This collection of values is drawn from patent US12509460B2.

# System: MDR1 (P-gp)
# test.protocol: Blood-brain-barrier (BBB) penetration potential via MDCK-MDR1 permeability assay
# study.conditions: dog, MDCK-MDR1, pH 7.4, MDCK-MDR1: Papp B-A, B-A direction
test.readout: Papp B→A at 120 min, 5 μM (nm/s)

[
  {
    "molecule": "CN(c1ccc(-c2cc3ncccc3cc2O)nn1)[C@@H]1C[C@H]2CCC[C@H](N2)[C@@H]1F [Compound 78A]",
    "test.readout": "Papp B→A at 120 min, 5 μM",
    "value.observed": 505
  },
  {
    "molecule": "CN(c1ccc(-c2ccc(-n3cnc(C#N)c3)cc2O)nn1)[C@@H]1C[C@H]2CCC[C@H](N2)[C@@H]1F [Compound 63A]",
    "test.readout": "Papp B→A at 120 min, 5 μM",
    "value.observed": 460
  },
  {
    "molecule": "CN(c1ccc(-c2cc3nnccc3cc2O)nn1)[C@@H]1C[C@H]2CC[C@H](N2)[C@@H]1F [Compound 89A]",
    "test.readout": "Papp B→A at 120 min, 5 μM",
    "value.observed": 673
  },
  {
    "molecule": "CN(c1ccc(-c2cc3c(F)cn(C)c(=O)c3cc2O)nn1)[C@@H]1C[C@H]2CC[C@H](N2)[C@@H]1F [Compound 54A]",
    "test.readout": "Papp B→A at 120 min, 5 μM",
    "value.observed": 826
  },
  {
    "molecule": "CN(c1ccc(-c2cc3occc(=O)c3cc2O)nn1)[C@@H]1C[C@H]2CC[C@H](N2)[C@@H]1F [Compound 43A]",
    "test.readout": "Papp B→A at 120 min, 5 μM",
    "value.observed": 232
  },
  {
    "molecule": "CN(c1ccc(-c2ccc(-c3ccccn3)cc2O)nn1)[C@@H]1C[C@H]2CCC[C@H](N2)[C@@H]1F [Compound 23A]",
    "test.readout": "Papp B→A at 120 min, 5 μM",
    "value.observed": 349
  },
  {
    "molecule": "CN(c1ccc(-c2cc(F)c(-c3ccn(C)c(=O)c3)cc2O)nn1)[C@H]1C[C@@H]2CC(F)(F)[C@H](C1)N2 [Compound 22B]",
    "test.readout": "Papp B→A at 120 min, 5 μM",
    "value.observed": 877
  },
  {
    "molecule": "CN(c1ccc(-c2cc3nccnc3cc2O)nn1)[C@@H]1C[C@H]2CC[C@H](N2)[C@@H]1F [Compound 88A]",
    "test.readout": "Papp B→A at 120 min, 5 μM",
    "value.observed": 457
  },
  {
    "molecule": "CN(c1ccc(-c2ccc(-c3nnco3)cc2O)nn1)[C@@H]1C[C@H]2CC[C@H](N2)[C@@H]1F [Compound 44A]",
    "test.readout": "Papp B→A at 120 min, 5 μM",
    "value.observed": 509
  },
  {
    "molecule": "CN(c1ccc(-c2cc3c(=O)n(C)cnc3cc2O)nn1)[C@H]1C[C@@H]2CC[C@@H](N2)[C@H]1F [Compound 85B]",
    "test.readout": "Papp B→A at 120 min, 5 μM",
    "value.observed": 485
  },
  {
    "molecule": "CN(c1ccc(-c2cc3cccnc3cc2O)nn1)[C@@H]1C[C@H]2CC[C@H](N2)[C@@H]1F [Compound 74A]",
    "test.readout": "Papp B→A at 120 min, 5 μM",
    "value.observed": 445
  },
  {
    "molecule": "Cc1cnc(-c2ccc(-c3ccc(N(C)C4CC5CCC(N5)C4F)nn3)c(O)c2)o1 (single isomer, unassigned) [Compound 48B]",
    "test.readout": "Papp B→A at 120 min, 5 μM",
    "value.observed": 245
  },
  {
    "molecule": "CN(c1ccc(-c2ccc(-n3ccnc3)cc2O)nn1)[C@H]1C[C@@H]2CCC[C@@H](N2)[C@H]1F [Compound 11B]",
    "test.readout": "Papp B→A at 120 min, 5 μM",
    "value.observed": 550
  },
  {
    "molecule": "CN(c1ccc(-c2ccc(-c3cn[nH]c3)cc2O)nn1)C1CC2COCC(N2)C1F (centres unmarked) [Compound 8A]",
    "test.readout": "Papp B→A at 120 min, 5 μM",
    "value.observed": 593
  }
]
